# protocol description: AUC in rat at 10 mg/kg, po
# Format: ADME, organism-based
# Parameters: dose 10 mg/kg, route oral
# experimental parameters: plasma
property: AUC (µM·h)

>>> measurement("C=CCNC(=O)C(=O)C(CC1CC1)NC(=O)[C@@H]1CC2(CN1C(=O)[C@@H](NC(=O)NC1(CS(=O)(=O)C(C)(C)C)CCCCC1)C(C)(C)C)SCCCS2 (some centres undefined)")
1.69
>>> measurement("C=CCNC(=O)C(=O)C(CCC)NC(=O)[C@@H]1CC2(CN1C(=O)[C@@H](NC(=O)NC1(CS(=O)(=O)C(C)(C)C)CCCCC1)C1(C)CCCCC1)SCCS2 (some centres undefined)")
1.34
>>> measurement("C=CCNC(=O)C(=O)C(CCC)NC(=O)[C@@H]1CC2(CN1C(=O)[C@@H](NC(=O)NC1(CS(=O)(=O)C(C)(C)C)CCCCC1)C(C)(C)C)SCCS2 (some centres undefined)")
0.57
>>> measurement("C=CCNC(=O)C(=O)C(CC1CC1)NC(=O)[C@@H]1CC2(CN1C(=O)[C@@H](NC(=O)N[C@@H](CN1C(=O)CC(C)(C)CC1=O)C(C)(C)C)C1(C)CCCCC1)SCCS2 (some centres undefined)")
0.2

* * *

Reported Ratio is given for each of the following compounds.
# protocol description: Selectivity for HCV NS3 serine protease over human neutrophil elastase
property: Ratio

>>> measurement("C=CCNC(=O)C(=O)C(CCCC)NC(=O)[C@@H]1CC2(CN1C(=O)[C@@H](NC(=O)N[C@@H](CN1C(=O)CC(C)(C)CC1=O)C(C)(C)C)C(C)(C)C)SCCS2 (stereo partly specified)")
1500
>>> measurement("C=CCNC(=O)C(=O)C(CCC)NC(=O)[C@@H]1CC2(CN1C(=O)[C@@H](NC(=O)NC1(CS(=O)(=O)C(C)(C)C)CCCCC1)C(C)(C)C)SCCCS2 (stereo partly specified)")
128
>>> measurement("C=CCNC(=O)C(=O)C(CC1CC1)NC(=O)[C@@H]1CC2(CN1C(=O)[C@@H](NC(=O)N[C@@H](CN1C(=O)CC(C)(C)CC1=O)C(C)(C)C)C1(C)CCCCC1)SCCS2 (stereo partly specified)")
200
>>> measurement("C=CCNC(=O)C(=O)C(CCC1CC1)NC(=O)[C@@H]1CC2(CN1C(=O)[C@@H](NC(=O)N[C@@H](CN1C(=O)CC(C)(C)CC1=O)C(C)(C)C)C(C)(C)C)SCCS2 (stereo partly specified)")
1700
>>> measurement("C=CCNC(=O)C(=O)C(CC1CC1)NC(=O)[C@@H]1CC2(CN1C(=O)[C@@H](NC(=O)NC1(CS(=O)(=O)C(C)(C)C)CCCCC1)C(C)(C)C)SCCCS2 (stereo partly specified)")
130
